Test: chemical genetic growth profiling, strain panel (AID 1159580);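 also: tested at 20 µM; growth read once vehicle control cultures reached saturation at 30 °C; 1 = growth at the plate median or of vehicle wells; lower values mean less growth of the strain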
Conditions: S. cerevisiae deletion strains, growth OD, strain TSCII, hits give low values
Screen size: about 5,500 compounds; about 2,000 (36%) were called active. Not shown: some 18% with an inconclusive outcome. This is one part of the list.
experimentalReadout: normalized growth
Numbers only.

Answered cases to consult:
molecularString	obsValue
O=C(N/N=C\c1cc(Br)ccc1O)c1ccccc1Oc1ccccc1	0.972
O=S(=O)(NC(=S)Nc1ccc(Cl)c(Cl)c1)c1ccccc1	0.999
CCOC(=O)c1cc(CC)sc1NC(=O)c1ccc([N+](=O)[O-])o1	0.998

Batch request: normalized growth per item, same order as input.
1. O=C(c1ccc(Cl)cc1)N(Cc1ccccc1)Cc1cccnc1
2. Fc1ccc(NC(=S)N2CCCN(Cc3ccc(Cl)cc3Cl)CC2)cc1
3. O=[N+]([O-])c1ccc(S(=O)(=O)c2ccccc2)nc1S(=O)(=O)c1ccccc1
4. COc1ccc2nc3ccccc3c(N)c2c1

Reply:
1: 0.995; 2: 0.984; 3: 0.872; 4: 0.58

Batch request: normalized growth per item, same order as input.
1. Brc1ccc2[nH]c3c(c2c1)CCC3
2. O=C(Nc1ccccc1Sc1ccc([N+](=O)[O-])cc1[N+](=O)[O-])C(Cl)(Cl)Cl
3. Nc1ccccc1C(=O)N/N=C\c1cc(Br)ccc1O
4. Cc1nc(-c2ccccn2)nc(N(C)Cc2ccccc2)c1Cl
5. O=[N+]([O-])c1cnc(Sc2nnc(SCc3cccc(C(F)(F)F)c3)s2)s1
6. C=CCc1c(CCC)nc(-c2ccccn2)[nH]c1=O

Reply:
1: 0.931; 2: 0.981; 3: 0.99; 4: 0.953; 5: 0.102; 6: 0.929

Batch request: normalized growth per item, same order as input.
1. S=C(Nc1ccc(Cl)cc1)SCc1c(Cl)cccc1Cl
2. O=S(=O)(c1ccc(Cl)cc1)N(Cc1cccnc1)Cc1ccc(Cl)cc1Cl

Reply:
1. 0.981
2. 0.927

Batch request: normalized growth per item, same order as input.
1. OC1CCN(c2cc(C(F)(F)F)nc3cc(Cl)cc(Cl)c23)CC1
2. Fc1cccc(Cl)c1CSc1n[nH]c(-c2cc(C(F)(F)F)cc(C(F)(F)F)c2)n1

Reply:
0.97
0.972

---

Assay: chemical genetic growth profiling, strain panel (AID 1159580)
Settings: S. cerevisiae deletion strains, growth OD, locus YBR021W, strain FUR4
The whole screen tested about 5,500 compounds, of which about 2,000 (36%) were called active. Not shown: some 18% with an inconclusive outcome. No stated cut-off is given here; in the data, active means normalized growth mostly below about 0.91 (no sharp cut-off); inconclusive means no clear call, values can overlap the other calls; inactive means mostly above about 0.92. The list shows a part of the results. Where a SMILES comes first, the peptide text is derived from it. The star is where a group is joined. For = O=C*
Write down one outcome, taken from true for active, false for inactive

Take a look at these entries with their results.
compound	discreteLabel
CC(=O)O[C@H]1CC[C@@]2(C)C(CC[C@]3(C)C2CC=C2C4CC(C)(C)CC[C@]4(C)CC[C@]23C)C1(C)C (some centres undefined)	false
NC(N)=N/N=C/c1c(Cl)cccc1Cl	false
COC(=O)Nc1nc2ccc(Sc3ccccc3)cc2[nH]1	false
CC(=O)NC(C(=O)O)C(C)(C)SN=O (centres undefined)	false
CNC(=O)O/N=C\C(C)(C)SC	false
CSCCC(NC=O)C(=O)NC(Cc1ccccc1)C(=O)O (stereo not drawn) (For-Met-Phe-OH; configuration not given here)	false
Cc1cc(O)cc(O)c1C(=O)O	false
C/C=C(/C)C(=O)O[C@H]1CC[C@@]2(C)[C@@H]3CC[C@H]4[C@]5(O)C[C@H](O)[C@@]6(O)[C@@H](CN7C[C@@H](C)CC[C@H]7[C@@]6(C)O)[C@]5(O)C[C@@]42O[C@]13O	false

Task item: How did this test come out for COC1=C[C@@H]2[C@@H]3Cc4ccc(OC)c(O)c4[C@]2(CCN3C)CC1=O ?
Reply: false

Task item: How did this test come out for CNCc1ccccc1 ?
Reply: false

Task item: How did this test come out for C/C=C(/C)C(=O)O[C@@H]1[C@H](OC(C)=O)[C@@]2(CO)C(CC1(C)C)C1=CCC3[C@@]4(C)CC[C@H](O[C@@H]5O[C@H](C(=O)O)[C@@H](O[C@@H]6O[C@H](CO)[C@@H](O)[C@H](O)[C@H]6O)[C@H](O)[C@H]5O[C@@H]5O[C@H](CO)[C@@H](O)[C@H](O)[C@H]5O)[C@](C)(CO)C4CC[C@@]3(C)[C@]1(C)C[C@H]2O (some centres undefined) ?
Reply: false

Task item: How did this test come out for CCOC(=O)OC(C)OC(=O)C1N2C(=O)C(NC(=O)[C@H](N)c3ccccc3)C2SC1(C)C (some centres undefined) ?
Reply: false

Task item: How did this test come out for CC(=O)O[C@@H]1CC[C@@]2(C)C(CC[C@]3(C)C2CC=C2C4CC(C)(C)CC[C@]4(C(=O)O)CC[C@]23C)C1(C)C (some centres undefined) ?
Reply: false

---

Test: chemical genetic growth profiling, strain panel (AID 1159580);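 also: tested at 20 µM; growth read once vehicle control cultures reached saturation at 30 °C; 1 = growth at the plate median or of vehicle wells; lower values mean less growth of the strain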
Settings: S. cerevisiae deletion strains, growth OD, locus YOL147C, strain pex11, hits give low values
About 2,000 (36%) of roughly 5,500 compounds were called active. About 18% were inconclusive and are not listed. This is one part of the list.
For each record, write down the corresponding normalized growth.
One number for each entry.

molecule	obsValue
COC(=O)/C(C)=C\CC12OC(C)(C)C3CC(C=C4C(=O)c5c(O)c6c(c(CCC(C)(C)Cl)c5OC431)OC1(C)CCC(=C(C)C)C6C1)C2=O (stereo unspecified)	1
CC(C)=CCCC1(C)C=Cc2c(O)c3c(c(CC=C(C)C)c2O1)OC12C(=CC4CC1C(C)(C)OC2(C/C=C(/C)C(=O)O)C4=O)C3=O (stereo unspecified)	0.929
CCCOc1ccccc1-c1nc2n[nH]nc2c(=O)[nH]1	1.01
C[C@@H]1OC(O[C@H]2C(O[C@H]3CC[C@@]4(C)C(CC[C@]5(C)C4CC=C4C6CC(C)(C)CC[C@]6(C(=O)O)CC[C@]45C)[C@]3(C)CO)OC[C@H](O)[C@@H]2O)[C@H](O)[C@H](O)[C@H]1O (stereo partly specified)	0.0641
CC(=O)OC1CC[C@@]2(C)C(CC[C@]3(C)C2CCC2C4CC(C)(C)CCC4(C(=O)O)CC[C@]23C)C1(C)C (stereo partly specified)	0.979

Task item: Give recorded normalized growth. CC(=O)O[C@H]1CC[C@@]2(C)C(CC[C@]3(C)C2CC=C2C4CC(C)(C)CC[C@]4(C)CC[C@]23C)C1(C)C (stereo partly specified)
Reply: 1.01

---

Test: chemical genetic growth profiling, strain panel (AID 1159580);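 also: tested at 20 µM; growth read once vehicle control cultures reached saturation at 30 °C; 1 = growth at the plate median or of vehicle wells; lower values mean less growth of the strain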
Settings: S. cerevisiae deletion strains, growth OD, locus YJL095W, strain BCK1
The campaign covered roughly 5,500 compounds. About 2,000 (36%) were called active. Inconclusive results (about 18%) are left out. Rule as the data show it: active = normalized growth mostly below about 0.91 (no sharp cut-off); inconclusive = no clear call, values can overlap the other calls; inactive = mostly above about 0.92. Some of the results follow.
Write down one outcome, taken from YES for active, NO for inactive

Take a look at these entries with their results.
compound	discreteLabel
N#Cc1c2ccccc2nc2ccccc12	NO
Cc1ccc(C)c(CSc2nc(C3CCCCC3)c(C#N)c(=O)[nH]2)c1	NO
COc1c(-c2coc3cc4c(cc3c2=O)CC(OC(C)=O)C(C)(C)O4)ccc2c1C=CC(C)(C)O2 (configuration not stated)	NO
CC(C)CCCC1(C)C=Cc2c(O)c3c(c(CCC(C)C)c2O1)OC12C(CC4CC1C(C)(C)OC2(CCC(C)C(=O)O)C4O)C3=O (configuration not stated)	NO
CCOc1ccc2nc3cc(N)ccc3c(N)c2c1	NO
O=C(N/N=C\c1cc(Br)ccc1O)c1ccccc1Oc1ccccc1	NO
CCOc1ccc2nc(S(N)(=O)=O)sc2c1	NO
CN(C)CCCSC(=N)N	NO

Task item: How did this test come out for Cc1cc(-n2c(=O)[nH]c(=O)n(C)c2=O)ccc1Oc1ccc(SC(F)(F)F)cc1 ?
Reply: YES

Task item: How did this test come out for N=C(N)SCCN ?
Reply: NO

Task item: How did this test come out for CNC(=O)O/N=C\C(C)(C)SC ?
Reply: NO

Task item: How did this test come out for CC1=CCC2C3(C)C1=CC(=O)OC3CC1C(C)(C)CC(O)C(O)C12C (configuration not stated) ?
Reply: NO

---

Experiment: chemical genetic growth profiling, strain panel (AID 1159580);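 also: tested at 20 µM; growth read once vehicle control cultures reached saturation at 30 °C; 1 = growth at the plate median or of vehicle wells; lower values mean less growth of the strain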
Details: S. cerevisiae deletion strains, growth OD, locus YBR171W, strain sec66
Among all 5,500 compounds or so, about 2,000 (36%) were called active. About 18% were inconclusive and are not listed. Rule as the data show it: active = normalized growth mostly below about 0.91 (no sharp cut-off); inconclusive = no clear call, values can overlap the other calls; inactive = mostly above about 0.92. This is one part of the list.
Write down one outcome, taken from label 1 for active, label 0 for inactive

Take a look at these entries with their results.
compound	discreteLabel
CC(=O)/C=C\[C@@H]1[C@@]2(C)CCCC(C)(C)C2CC[C@@]1(C)O (some centres undefined)	label 0
OC(CCN1CCCC1)(c1ccccc1)C1CCCCC1 (centres undefined)	label 0
O=c1ccc2ccc(O)cc2o1	label 0
CC(CC(=O)C1OC1(C)C)C1C(=O)CC2(C)C3=CCC4C(C)(C)C(OC5OCC(O)C(O)C5O)CCC45CC35C(O)CC12C (centres undefined)	label 0
Cc1cc(-n2c(=O)[nH]c(=O)n(C)c2=O)ccc1Oc1ccc(SC(F)(F)F)cc1	label 1

Task item: How did this test come out for CC1(C)CCC2(C(=O)O)CCC3(C)C(=CCC4C5(C)CCC(O)C(C)(C)C5C(O)CC43C)C2C1 (centres undefined) ?
Reply: label 0

Task item: How did this test come out for CC1=NS(=O)(=O)c2cc(Cl)ccc2N1 ?
Reply: label 0

Task item: How did this test come out for NC(N)=N/N=C/c1c(Cl)cccc1Cl ?
Reply: label 0
